system: A549; test: Antiproliferative activity against human A549 cells at 30 ug/ml after 48 hrs by MTT assay; assay type: cell-based; details: a549, 48 h
observed property: Activity (%)
Express it in %; write the number only.

Q: Would you mind telling me what Activity value was observed for O=C1CSc2ccccc2N1Cc1cn(Cc2ccccc2Cl)nn1 ?
Result: 23.34

Q: Would you mind telling me what Activity value was observed for O=C1CSc2ccccc2N1Cc1cn(Cc2ccc([N+](=O)[O-])cc2)nn1 ?
Result: 8.43

Q: Would you mind telling me what Activity value was observed for O=C1CSc2ccccc2N1Cc1cn(Cc2ccc(Cl)cc2)nn1 ?
Result: 51.91

More entries:
Q: Would you mind telling me what Activity value was observed for O=C1CSc2ccccc2N1Cc1cn(Cc2ccccc2)nn1 ?
Result: 25.91

Q: Would you mind telling me what Activity value was observed for O=C1CSc2ccccc2N1Cc1cn(Cc2ccc(Br)cc2)nn1 ?
Result: 44.78

Q: Would you mind telling me what Activity value was observed for O=C1CSc2ccccc2N1Cc1cn(Cc2cccc(Cl)c2)nn1 ?
Result: 19.04

Q: Would you mind telling me what Activity value was observed for O=C1CSc2ccccc2N1Cc1cn(-c2cccc([N+](=O)[O-])c2)nn1 ?
Result: 22.02

Q: Would you mind telling me what Activity value was observed for O=C1CSc2ccccc2N1Cc1cn(Cc2ccc(F)cc2)nn1 ?
Result: 30.9

Q: Would you mind telling me what Activity value was observed for O=C1CSc2ccccc2N1Cc1cn(-c2ccc([N+](=O)[O-])cc2)nn1 ?
Result: 38.71

Q: Would you mind telling me what Activity value was observed for O=C1CSc2ccccc2N1Cc1cn(Cc2cccc([N+](=O)[O-])c2)nn1 ?
Result: -11.78

====

test: Selectivity index, ratio of GI50 for human HeLa cells to MIC for Mycobacterium tuberculosis H37Ra ATCC 25177; assay type: toxicity, cell-based; conditions: pooled result: one value given for 3 cell lines, strains, targets or settings, read-out: Selectivity Index
Threshold rule: selectivity ratio greater than or equal to 1000 is yes (1); below that, no (0).

Q: Does CO[C@H]1/C=C/O[C@@]2(C)Oc3c(C)c(O)c4c(O)c(c(/C=N/N5CCN(C)CC5)c(O)c4c3C2=O)NC(=O)/C(C)=C\C=C\[C@H](C)[C@H](O)[C@@H](C)[C@@H](O)[C@@H](C)[C@H](OC(C)=O)[C@@H]1C have a reported selectivity ratio of at least 1000?
Result: yes (1)

Q: Does O=C1CSc2ccccc2N1Cc1cn(Cc2ccc([N+](=O)[O-])cc2)nn1 have a reported selectivity ratio of at least 1000?
Result: no (0)

Q: Does O=C1CSc2ccccc2N1Cc1cn(Cc2ccc(F)cc2)nn1 have a reported selectivity ratio of at least 1000?
Result: no (0)

More entries:
Q: Does NNC(=O)c1ccncc1 have a reported selectivity ratio of at least 1000?
Result: yes (1)

Q: Does O=C1CSc2ccccc2N1Cc1cn(Cc2cccc(Cl)c2)nn1 have a reported selectivity ratio of at least 1000?
Result: no (0)

====

system: HeLa; experiment: Antiproliferative activity against human HeLa cells at 30 ug/ml after 72 hrs by MTT assay; format: cell-based
Threshold rule: Activity greater than or equal to 40% is Yes; below that, No.

Q: Does O=C1CSc2ccccc2N1Cc1cn(Cc2ccc(Cl)cc2)nn1 have a reported Activity of at least 40%?
Result: Yes

Q: Does O=C1CSc2ccccc2N1Cc1cn(-c2cccc([N+](=O)[O-])c2)nn1 have a reported Activity of at least 40%?
Result: No

Q: Does O=C1CSc2ccccc2N1Cc1cn(Cc2cccc([N+](=O)[O-])c2)nn1 have a reported Activity of at least 40%?
Result: No

Q: Does O=C1CSc2ccccc2N1Cc1cn(-c2ccc([N+](=O)[O-])cc2)nn1 have a reported Activity of at least 40%?
Result: No

Q: Does O=C1CSc2ccccc2N1Cc1cn(Cc2ccc(F)cc2)nn1 have a reported Activity of at least 40%?
Result: Yes

More entries:
Q: Does O=C1CSc2ccccc2N1Cc1cn(Cc2ccc(Br)cc2)nn1 have a reported Activity of at least 40%?
Result: Yes

Q: Does O=C1CSc2ccccc2N1Cc1cn(Cc2ccc([N+](=O)[O-])cc2)nn1 have a reported Activity of at least 40%?
Result: Yes

Q: Does O=C1CSc2ccccc2N1Cc1cn(Cc2ccccc2Cl)nn1 have a reported Activity of at least 40%?
Result: Yes

Q: Does O=C1CSc2ccccc2N1Cc1cn(Cc2cccc(Cl)c2)nn1 have a reported Activity of at least 40%?
Result: Yes
